experimental_endpoint: melting point

// solved cases for melting point follow
chemical_string	assay_result
Cc1c(C(=O)O)oc2ccc(S(=O)(=O)N(CCc3ccccc3)Cc3ccc(-c4ccccc4)cc3)cc12	> 380 °C (dec.)
CC(=O)N1CCN(c2ccccc2CN(CCc2ccccc2)S(=O)(=O)c2ccc3oc(C(=O)O)c(C)c3c2)CC1	236 to 237 °C
Cc1c(C(=O)O)oc2ccc(S(=O)(=O)N(CCc3ccccc3)Cc3ccc(OC(F)(F)F)cc3)cc12	216 to 217 °C
Cc1ccc(CN(CCc2ccccc2)S(=O)(=O)c2ccc3oc(C(=O)O)c(C)c3c2)cc1	> 380 °C (dec.)
Cc1c(C(=O)O)oc2ccc(S(=O)(=O)N(CCc3ccccc3)c3cccc(N4CCN(C)CC4)c3)cc12	232 to 233 °C

Bench note: what melting point did Cc1c(C(=O)O)oc2ccc(S(=O)(=O)N(CCc3ccccc3)c3ccccc3N3CC[N+](C)(C)CC3)cc12 show? 246 to 247 °C

Given Cc1c(C(=O)O)oc2ccc(S(=O)(=O)N(CCc3ccccc3)c3ccccc3N3CCN(Cc4ccccc4)CC3)cc12 , state its recorded melting point. 161 to 162 °C

Return reported melting point; argument: Cc1c(C(=O)O)oc2ccc(S(=O)(=O)N(CCc3ccccc3)Cc3ccccc3N3CCN(S(C)(=O)=O)CC3)cc12 150 to 151 °C

Fill in the blank: the reported melting point of Cc1c(C(=O)O)oc2ccc(S(=O)(=O)N(CCc3ccccc3)Cc3ccc(Br)cc3F)cc12 is ____. > 380 °C (dec.)

Query (molecule): Cc1c(C(=O)O)oc2ccc(S(=O)(=O)N(CCc3ccccc3)Cc3ccccc3F)cc12 ; field requested: melting point > 380 °C (dec.)

###

Measured pIC50, listed per entry.
# measured_target: FXR (Homo sapiens, UniProt Q96RI1)
# Construct: 5 μL of 20 nM FXR-LBD Complete Coregulator buffer G; purchased ThermoFisher PV4833
# method_notes: FXR antagonist screening by TR-FRET (LanthaScreen TR-FRET FXR co-activation assay kit)
# Type: biochemical
# experimental_setup: Table 1.2, FXR antagonistic activity; TR-FRET with CDCA; geometric means of at least two independent runs
# Experimental: FXR activity was evaluated by time-resolved fluorescence resonance energy transfer (TR-FRET) assay, using LanthaScreen™ TR-FRET FXR co-activation assay kit (ThermoFisher, Cat. PV4833). […]
pIC50: −log10 of the molar value.

compound	pIC50
Cc1c(C(N)=O)oc2ccc(S(=O)(=O)N(CCc3ccccc3)c3ccccc3N3CCN(C(=O)c4sccc4Br)CC3)cc12	5.00 to 7.00
CCOC(=O)c1sc2ccc(S(=O)(=O)N(CCc3ccccc3[N+](=O)[O-])c3ccccc3N3CCN(C(=O)c4sccc4Br)CC3)cc2c1C	4.00 to 4.30
CCOC(=O)c1oc2ccc(S(=O)(=O)N(CCc3ccccc3)c3ccccc3N3CCN(C(=O)c4ncc[nH]4)CC3)cc2c1C	4.00 to 4.30
CCOC(=O)c1oc2ccc(S(=O)(=O)N(CCc3ccccc3)c3ccccc3N3CCN(C(=O)c4ccco4)CC3)cc2c1C	4.00 to 4.30
Cc1c(C(=O)O)sc2ccc(S(=O)(=O)N(CCc3ccc(C(=O)O)cc3)c3ccccc3N3CCN(C(=O)c4sccc4Br)CC3)cc12	5.00 to 7.00
CCOC(=O)c1oc2ccc(S(=O)(=O)N(CCc3ccccc3)c3ccccc3N3CCN(C(=O)c4ccc(NC(C)=O)cc4)CC3)cc2c1C	4.00 to 4.30

Quick one: pIC50 for Cc1c(C(=O)O)sc2ccc(S(=O)(=O)N(CCc3ccccc3Cl)c3ccccc3N3CCN(C(=O)c4sccc4Br)CC3)cc12 ? 5.00 to 7.00

# get_value(readout='pIC50', item= COc1ccccc1CCN(c1ccccc1N1CCN(C(=O)c2sccc2Br)CC1)S(=O)(=O)c1ccc2sc(C(=O)O)c(C)c2c1 ) 5.00 to 7.00

Fill in: pIC50 of Cc1c(C(=O)O)oc2ccc(S(=O)(=O)N(CCc3ccccc3)c3ccccc3N3CCN(C(=O)c4cc(Br)cs4)CC3)cc12 is ___ 5.00 to 7.00

###

# measured_target: FXR (Homo sapiens)
# Construct: 5 μL of 20 nM FXR-LBD Complete Coregulator buffer G; purchased ThermoFisher PV4833
# method_notes: FXR antagonist screening by TR-FRET (LanthaScreen TR-FRET FXR co-activation assay kit)
# Format: biochemical
# experimental_setup: Table 1.2, FXR antagonistic activity; TR-FRET with CDCA; geometric means of at least two independent runs
# Description: FXR activity was evaluated by time-resolved fluorescence resonance energy transfer (TR-FRET) assay, using LanthaScreen™ TR-FRET FXR co-activation assay kit (ThermoFisher, Cat. PV4833). […]
experimental_endpoint: IC50

compound	measured_target	IC50
CCOC(=O)c1oc2ccc(S(=O)(=O)N(CCc3ccccc3)c3ccccc3N3CCN(C(=O)C4CCCS4)CC3)cc2c1C (stereo not drawn)	FXR (Homo sapiens)	50 to 100 µM
CCOC(=O)c1oc2ccc(S(=O)(=O)N(CCc3ccccc3)c3ccccc3N3CCN(C(=O)c4sccc4Br)C[C@@H]3C)cc2c1C	FXR (Homo sapiens)	50 to 100 µM
CCOC(=O)c1cc2cc(S(=O)(=O)N(CCc3ccccc3)c3ccccc3N3CCN(C(=O)c4sccc4Br)CC3)ccc2o1	FXR (Homo sapiens)	50 to 100 µM
Cc1c(C(=O)O)sc2ccc(S(=O)(=O)N(C)c3ccccc3N3CCN(C(=O)c4sccc4Br)CC3)cc12	FXR (Homo sapiens)	0.1 to 10 µM
CCOC(=O)c1oc2ccc(S(=O)(=O)N(CCc3ccccc3)c3ccccc3N3CCN(C(=O)c4ccc(C#Cc5ccccc5)cc4)CC3)cc2c1C	FXR (Homo sapiens)	50 to 100 µM

Field: next compound
For the compound shown here, CCOC(=O)c1oc2ccc(S(=O)(=O)N(CCc3ccccc3)c3ccccc3N3CCN(C(=O)c4c(OC)cccc4OC)CC3)cc2c1C , give the reported IC50. 50 to 100 µM

###

Listed below: melting point values for each entry.

chemical_string	melting point
Cc1c(C(=O)O)oc2ccc(S(=O)(=O)N(CCc3ccccc3)Cc3ccccc3N3CCNCC3)cc12	223 to 224 °C
Cc1cccc(C)c1CN(CCc1ccccc1)S(=O)(=O)c1ccc2oc(C(=O)O)c(C)c2c1	211 to 212 °C
Cc1ccccc1CN(CCc1ccccc1)S(=O)(=O)c1ccc2oc(C(=O)O)c(C)c2c1	199 to 200 °C
Cc1c(C(=O)O)oc2ccc(S(=O)(=O)N(CCc3ccccc3)c3ccccc3N3CCN(C(=O)c4ccccc4)CC3)cc12	128 to 129 °C
Cc1c(C(=O)O)oc2ccc(S(=O)(=O)N(CCc3ccccc3)Cc3cccc(C(F)(F)F)c3)cc12	188 to 189 °C

Recorded melting point for Cc1c(C(=O)O)oc2ccc(S(=O)(=O)N(CCc3ccccc3)Cc3ccccc3N3CCN(C(=O)N(C)C)CC3)cc12 , please? 118 to 119 °C

Reported melting point for Cc1c(C(=O)O)oc2ccc(S(=O)(=O)N(CCc3ccccc3)Cc3cccc(Br)c3)cc12 : what is it? > 380 °C (dec.)

###

# measured_target: FXR (Homo sapiens, UniProt Q96RI1)
# Construct: 5 μL of 20 nM FXR-LBD Complete Coregulator buffer G; purchased ThermoFisher PV4833
# method_notes: FXR antagonist screening by TR-FRET (LanthaScreen TR-FRET FXR co-activation assay kit)
# Format: biochemical
# experimental_setup: Table 1.2, FXR antagonistic activity; TR-FRET with CDCA; geometric means of at least two independent runs
experimental_endpoint: IC50

Worked set:
molecule	experimental_endpoint	assay_result
CCOC(=O)c1oc2ccc(S(=O)(=O)N(CCc3ccccc3)c3ccccc3N3CCN(C(=O)c4ccccc4Cc4ccccc4)CC3)cc2c1C [Example M10-134]	IC50	50 to 100 µM
CCOC(=O)c1oc2ccc(S(=O)(=O)N(CCc3ccccc3)c3ccccc3N3CCN(C(=O)c4ccc(C#N)cc4)CC3)cc2c1C [Example M10-111]	IC50	50 to 100 µM

# lookup: IC50 of Cc1c(C(=O)O)oc2ccc(S(=O)(=O)N(CCc3ccccc3)c3ccccc3N3CC4CC(C3)N4C(=O)c3sccc3Br)cc12 [Example F27-S151] 0.1 to 10 µM

###

Listed here are molecules together with their documented pIC50.
# measured_target: FXR (Homo sapiens, UniProt Q96RI1)
# Construct: 5 μL of 20 nM FXR-LBD Complete Coregulator buffer G; purchased ThermoFisher PV4833
# Sequence (Q96RI1 262-486 limits assumed): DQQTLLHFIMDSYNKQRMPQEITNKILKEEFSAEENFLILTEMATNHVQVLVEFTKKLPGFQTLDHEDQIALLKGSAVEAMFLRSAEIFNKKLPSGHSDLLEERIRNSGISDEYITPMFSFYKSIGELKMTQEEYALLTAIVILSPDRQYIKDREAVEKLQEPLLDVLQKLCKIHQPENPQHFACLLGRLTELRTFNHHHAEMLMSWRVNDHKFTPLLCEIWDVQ
# method_notes: FXR antagonist screening by TR-FRET (LanthaScreen TR-FRET FXR co-activation assay kit)
# Assay type: biochemical
# experimental_setup: Table 1.1, FXR antagonistic activity; TR-FRET with CDCA; geometric means of at least two independent runs
pIC50: −log10 of the molar value.

Observe how each entry below is paired with its result.
molecule	assay_result
Cc1c(C(=O)O)oc2ccc(S(=O)(=O)N(CCc3ccccc3)Cc3cccc(-c4ccccc4)c3)cc12 [Example F27-S26]	4.30 to 5.00
CCOC(=O)c1oc2ccc(S(=O)(=O)N(CCc3ccccc3)Cc3ccc(N4CCOCC4)cc3)cc2c1C [Example M8-79]	4.00 to 4.30
CCOC(=O)c1oc2ccc(S(=O)(=O)N(CCc3ccccc3)c3ccc(N4CCN(C(=O)OC(C)(C)C)CC4)cc3)cc2c1C [Example M8-65]	4.00 to 4.30
Cc1c(C(=O)O)oc2ccc(S(=O)(=O)N(CCc3ccccc3)Cc3ccc(-c4ccccc4C(=O)OC(C)(C)C)cc3)cc12 [Example F27-S84]	4.30 to 5.00

For Cc1ccc(F)cc1CN(CCc1ccccc1)S(=O)(=O)c1ccc2oc(C(=O)O)c(C)c2c1 [Example F27-S61] , what is its reported pIC50? 4.30 to 5.00
